Target: hGLP-1-R (Homo sapiens, UniProt P43220)
Construct: expressed in transfected cells
Sequence (P43220 24-463): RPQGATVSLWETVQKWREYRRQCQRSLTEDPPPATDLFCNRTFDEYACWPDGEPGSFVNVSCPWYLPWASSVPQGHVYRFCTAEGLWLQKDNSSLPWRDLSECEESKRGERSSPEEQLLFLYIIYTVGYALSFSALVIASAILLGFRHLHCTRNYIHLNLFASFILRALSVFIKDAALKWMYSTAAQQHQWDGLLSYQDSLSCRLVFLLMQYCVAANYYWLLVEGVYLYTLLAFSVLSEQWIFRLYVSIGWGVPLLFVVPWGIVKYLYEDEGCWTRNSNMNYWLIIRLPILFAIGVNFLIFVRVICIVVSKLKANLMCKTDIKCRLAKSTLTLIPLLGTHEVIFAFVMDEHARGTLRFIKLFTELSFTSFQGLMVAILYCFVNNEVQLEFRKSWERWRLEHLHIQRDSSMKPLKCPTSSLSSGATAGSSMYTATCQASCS
Assay: GLP-1 receptor efficacy assay (cAMP) in HEK293 cells expressing hGLP-1-R
Assay type: cell-based
Details: re-testing; cAMP, HEK293 hGLP-1-R
reportedMetric: EC50 (nM)

H-HSQGTFTSDYSKYLDRARADDFVAWLKST-NH2 [Compound 3] = 0.23
